biological target: Mitogen-activated protein kinase 14 (Homo sapiens); assay: Inhibition of human stress-activated protein kinase-2 alpha (p38 MAP-kinase) at 30 uM
Measurement label: inhibition (%)
Just the number in %, nothing appended.

Field: example entries. Status: answers known.
[
  {
    "Compound": "Fc1ccc(Cc2[nH]cnc3ncnc2-3)cc1",
    "Measurement target": "Mitogen-activated protein kinase 14 (Homo sapiens)",
    "inhibition, %": 1
  },
  {
    "Compound": "c1ccc(Sc2[nH]cnc3nccc2-3)cc1",
    "Measurement target": "Mitogen-activated protein kinase 14 (Homo sapiens)",
    "inhibition, %": 56
  },
  {
    "Compound": "Cn1cnc2c(-c3ccc(F)cc3)ncnc21",
    "Measurement target": "Mitogen-activated protein kinase 14 (Homo sapiens)",
    "inhibition, %": 16
  }
]

Now, please, on to the next compound.
IN: Find the recorded inhibition belonging to Cn1c(-c2ccc([S+](C)[O-])cc2)nc2c(Sc3ccc(F)cc3)ncnc21 (centres undefined) and report it.
OUT: 44

* * *

target: Mitogen-activated protein kinase 10 (Rattus norvegicus) (UniProt P49187); assay: Inhibition of rat c-Jun N-terminal kinase-3 at 30 uM
Sequence (P49187 whole entry): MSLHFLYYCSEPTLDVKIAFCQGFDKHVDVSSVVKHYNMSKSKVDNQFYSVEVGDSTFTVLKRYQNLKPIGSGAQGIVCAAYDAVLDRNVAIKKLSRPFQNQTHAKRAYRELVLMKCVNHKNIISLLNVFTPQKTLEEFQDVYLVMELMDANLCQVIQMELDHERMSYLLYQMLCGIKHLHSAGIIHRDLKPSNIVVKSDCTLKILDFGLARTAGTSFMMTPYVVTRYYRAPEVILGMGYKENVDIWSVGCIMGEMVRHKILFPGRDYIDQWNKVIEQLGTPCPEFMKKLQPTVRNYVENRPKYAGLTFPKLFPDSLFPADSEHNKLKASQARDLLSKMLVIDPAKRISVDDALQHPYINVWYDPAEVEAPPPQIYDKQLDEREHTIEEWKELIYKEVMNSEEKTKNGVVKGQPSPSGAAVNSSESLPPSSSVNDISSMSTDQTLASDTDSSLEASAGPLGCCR
Reported inhibition values follow for various compounds
Reply with a number, then the unit it belongs to.

Field: example entries. Status: answers known.
[
  {
    "Compound": "Clc1ncnc2c1ncn2Cc1ccccc1",
    "Endpoint value": "16%"
  },
  {
    "Compound": "Cn1cnc2c(Sc3ccc(F)cc3)ncnc21",
    "Endpoint value": "9%"
  },
  {
    "Compound": "c1ccc(Sc2[nH]cnc3nccc2-3)cc1",
    "Endpoint value": "0%"
  },
  {
    "Compound": "Fc1ccc(Nc2[nH]cnc3ncnc2-3)cc1",
    "Endpoint value": "10%"
  },
  {
    "Compound": "Nc1ncnc2ncn(Cc3ccc(F)cc3)c12",
    "Endpoint value": "25%"
  },
  {
    "Compound": "Cn1c(Br)nc2c(Sc3ccccc3)ncnc21",
    "Endpoint value": "0%"
  },
  {
    "Compound": "Cn1cnc2c(Nc3ccc(F)cc3)ncnc21",
    "Endpoint value": "19%"
  },
  {
    "Compound": "Cn1c(C#CCCO)nc2c(Sc3ccccc3)ncnc21",
    "Endpoint value": "0%"
  }
]

IN: Find the recorded inhibition belonging to Cn1cnc2c(Sc3ccccc3)ncnc21 and report it.
OUT: 7%

IN: Find the recorded inhibition belonging to Cn1c(-c2ccc([S+](C)[O-])cc2)nc2c(Sc3ccc(F)cc3)ncnc21 (stereo not drawn) and report it.
OUT: 10%

IN: Find the recorded inhibition belonging to Nc1[nH]cnc2ncnc1-2 and report it.
OUT: 10%

IN: Find the recorded inhibition belonging to Fc1ccc(Sc2ncnc3[nH]cnc23)cc1 and report it.
OUT: 8%

IN: Find the recorded inhibition belonging to Cn1c(-c2ccc(S(C)(=O)=O)cc2)nc2c(Sc3ccccc3)ncnc21 and report it.
OUT: 7%

* * *

biological target: Mitogen-activated protein kinase 8 (Homo sapiens) (UniProt P45983); experiment: Inhibition of human c-Jun N-terminal kinase-1 alpha-1 at 30 uM
Sequence (P45983 whole entry): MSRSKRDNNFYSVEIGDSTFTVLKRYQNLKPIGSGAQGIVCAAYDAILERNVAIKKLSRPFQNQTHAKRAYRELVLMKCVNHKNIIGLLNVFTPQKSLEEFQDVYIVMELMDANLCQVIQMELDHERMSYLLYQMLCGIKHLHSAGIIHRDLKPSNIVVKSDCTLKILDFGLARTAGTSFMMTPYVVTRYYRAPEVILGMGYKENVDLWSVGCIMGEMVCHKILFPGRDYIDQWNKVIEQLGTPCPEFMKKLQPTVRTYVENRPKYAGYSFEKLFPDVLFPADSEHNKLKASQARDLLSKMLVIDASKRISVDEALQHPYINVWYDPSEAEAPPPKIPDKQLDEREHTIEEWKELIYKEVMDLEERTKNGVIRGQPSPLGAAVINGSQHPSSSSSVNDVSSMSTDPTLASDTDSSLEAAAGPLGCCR
Measurement label: inhibition (%)
Just the number in %, nothing appended.

[
  {
    "Compound": "Fc1ccc(Cn2cnc3ncnc(Cl)c32)cc1",
    "Unit text": "%",
    "inhibition": 6
  },
  {
    "Compound": "Clc1ncnc2ncn(Cc3ccccc3)c12",
    "Unit text": "%",
    "inhibition": 0
  },
  {
    "Compound": "Nc1ncnc2c1ncn2Cc1ccc(F)cc1",
    "Unit text": "%",
    "inhibition": 0
  },
  {
    "Compound": "c1ccc(Sc2[nH]cnc3nccc2-3)cc1",
    "Unit text": "%",
    "inhibition": 0
  },
  {
    "Compound": "c1ccc(Cc2[nH]cnc3ncnc2-3)cc1",
    "Unit text": "%",
    "inhibition": 0
  },
  {
    "Compound": "Cn1cnc2c(Sc3ccccc3)ncnc21",
    "Unit text": "%",
    "inhibition": 3
  },
  {
    "Compound": "c1ccc(CSc2ncnc3[nH]cnc23)cc1",
    "Unit text": "%",
    "inhibition": 1
  },
  {
    "Compound": "Cn1cnc2c(/C=C/c3ccccc3)ncnc21",
    "Unit text": "%",
    "inhibition": 0
  },
  {
    "Compound": "Cn1c(-c2ccc([S+](C)[O-])cc2)nc2c(Sc3ccc(F)cc3)ncnc21 (stereo not drawn)",
    "Unit text": "%",
    "inhibition": 0
  },
  {
    "Compound": "c1ccc(Cn2cnc3c(Sc4ccccc4)ncnc32)cc1",
    "Unit text": "%",
    "inhibition": 0
  }
]

IN: Find the recorded inhibition belonging to Fc1ccc(Cn2cnc3c(Sc4ccc(F)cc4)ncnc32)cc1 and report it.
OUT: 0

IN: Find the recorded inhibition belonging to Fc1ccc(Sc2ncnc3c2ncn3Cc2ccccc2)cc1 and report it.
OUT: 0

IN: Find the recorded inhibition belonging to c1ccc(Nc2ncnc3[nH]cnc23)cc1 and report it.
OUT: 0
